Biological target: T1, hBCMA (human BCMA) (Homo sapiens, UniProt Q02223)
T1 sequence (Q02223 1-184): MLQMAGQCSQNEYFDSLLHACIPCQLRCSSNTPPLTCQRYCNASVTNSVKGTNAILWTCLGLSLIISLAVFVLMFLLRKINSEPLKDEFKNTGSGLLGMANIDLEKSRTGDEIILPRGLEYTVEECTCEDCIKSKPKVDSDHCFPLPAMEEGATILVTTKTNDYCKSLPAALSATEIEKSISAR
Assay: Kinetics and affinity of hBCMA/human IgG interactions by SPR (Bio-Rad Proteon XPR36)
Format: binding
Conditions: huBCMA, 37° C.
I'd appreciate it if you could supply kd (1/s) huBCMA @37° C. values for the items below.
Numbers only, in s⁻¹.

For every record below, what is its kd (1/s) huBCMA @37° C.?
1. L3.PY/L3.KF/H2.DY: anti-BCMA antibody (antibody, V domains shown) VH: EVQLLESGGGLVQPGGSLRLSCAASGFTFGSYAMTWVRQAPGKGLEWVSAIDYSGGNTFYADSVKGRFTISRDNSKNTLYLQMNSLRAEDTAVYYCARVSPIASGMDYWGQGTLVTVSS VL: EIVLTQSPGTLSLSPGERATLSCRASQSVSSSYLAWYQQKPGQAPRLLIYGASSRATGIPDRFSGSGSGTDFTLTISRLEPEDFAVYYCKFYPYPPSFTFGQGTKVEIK
2. L3.PY/L1.PS/H3.TAQ: anti-BCMA antibody (antibody, V domains shown) VH: EVQLLESGGGLVQPGGSLRLSCAASGFTFGSYAMTWVRQAPGKGLEWVSAISGSGGNTFYADSVKGRFTISRDNSKNTLYLQMNSLRAEDTAVYYCTRVSPIAAQMDYWGQGTLVTVSS VL: EIVLTQSPGTLSLSPGERATLSCRASQSVSSSYPSWYQQKPGQAPRLLIYGASSRATGIPDRFSGSGSGTDFTLTISRLEPEDFAVYYCQHYPYPPSFTFGQGTKVEIK
3. L3.PY/L1.FF/H2.DY: anti-BCMA antibody (antibody, V domains shown) VH: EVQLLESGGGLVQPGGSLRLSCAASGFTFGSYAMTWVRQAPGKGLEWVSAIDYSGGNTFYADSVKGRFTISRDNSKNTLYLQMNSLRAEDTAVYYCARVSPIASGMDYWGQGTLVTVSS VL: EIVLTQSPGTLSLSPGERATLSCRASQSVSSFFLAWYQQKPGQAPRLLIYGASSRATGIPDRFSGSGSGTDFTLTISRLEPEDFAVYYCQHYPYPPSFTFGQGTKVEIK
4. L3.PY/L3.KF/H3.YA: anti-BCMA antibody (antibody, V domains shown) VH: EVQLLESGGGLVQPGGSLRLSCAASGFTFGSYAMTWVRQAPGKGLEWVSAISGSGGNTFYADSVKGRFTISRDNSKNTLYLQMNSLRAEDTAVYYCARVSPIYAGMDYWGQGTLVTVSS VL: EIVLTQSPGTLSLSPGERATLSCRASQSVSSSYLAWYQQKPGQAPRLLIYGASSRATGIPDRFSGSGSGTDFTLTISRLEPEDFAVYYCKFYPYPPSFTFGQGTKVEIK
5. L3.PY/L3.KY/H3.TAQ: anti-BCMA antibody (antibody, V domains shown) VH: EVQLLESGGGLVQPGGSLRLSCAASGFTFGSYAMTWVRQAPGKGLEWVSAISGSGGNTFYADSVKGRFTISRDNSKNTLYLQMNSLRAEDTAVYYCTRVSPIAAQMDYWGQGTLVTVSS VL: EIVLTQSPGTLSLSPGERATLSCRASQSVSSSYLAWYQQKPGQAPRLLIYGASSRATGIPDRFSGSGSGTDFTLTISRLEPEDFAVYYCKYYPYPPSFTFGQGTKVEIK

[0.00182, 0.00246, 0.00271, 0.00147, 0.000649]
